System: OVCAR-4 ovarian
Assay: NCI-60 one-dose screen, 48 h (100 = growth as untreated, 0 = no growth, -100 = all killed)
Details: 10 µM unless noted
Compounds without any hit were thinned out: in the full panel of roughly 83,000, 20% have a hit.
Consider the following compounds; for each one, report its growth.
Numbers only here, please. The scale is %.

# return recorded growth for entry `Ic1cccs1`
102

For `CC(=O)c1cc(O)ccc1O` , write its growth.
108

Identify measured growth corresponding to `CCOC(=O)/C(C)=C\c1ccc(OC)c(OC)c1`
101

Please list growth recorded for the compound `CCCCCC#CC(=O)O`
103

Input `S=c1nc2[nH]c3ccccc3c2n[nH]1` , output reported growth.
102

Using known records, supply growth for Nc1ccn(C2OC(CO)C(O)C2F)c(=O)n1 (centres undefined)
84.4

Output measured growth for this item: `CCOc1ccccc1NC(=O)CCl`
45.9

Supply reported growth belonging to this compound: `CCCCCC(=O)OCCC1CCCCC1`
101

Identify measured growth associated with CC(=O)OCC1CCC(COC(C)=O)CC1 (centres undefined)
111

For the compound `C=CCc1cc(OC)c(OC)c(OC)c1` , give its reported growth.
112

Output growth of CC(=O)OC(C)c1cccc(C#N)c1 (centres undefined)
109

Quick one: give measured growth for `O=c1[nH]c(=O)c2cc(Cl)cc(Cl)c2[nH]1`
101

Return value of growth for input COC1CC(OC(=O)c2ccc([N+](=O)[O-])cc2)C(COC(=O)c2ccc([N+](=O)[O-])cc2)O1 (centres undefined) , no commentary.
97

Identify the reported growth for the following entry. `O=C(c1cccc(C(=O)c2ccc3c4c(cccc24)C(=O)N(c2ccccc2)C3=O)c1)c1ccc2c3c(cccc13)C(=O)N(c1ccccc1)C2=O`
77.4

====

Tested on: DU-145 prostate
Experiment: NCI-60 one-dose screen, 48 h
Settings: 10 µM unless noted
Method: Cells are grown in 96 well plates and exposed to the test compound for 48 hours. Compounds are tested at a single concentration, which is 10^-5 M for most compounds. The reported endpoint is percent growth (GI% or GIPRCNT), where numbers from 0 - 100% represent growth inhibition, and numbers from -100% - 0 represent cell death. For example, a value of 40 represents 60% growth inhibition. A value of 0 means no net growth occurred over the course of the experiment. […]
About 83,000 compounds went through this panel and 20% of them were active in at least one assay; those are over-represented in the sample as a whole. Active and inactive are the calls of the source. How the source made its calls: active means growth percent below 10; inactive means the rest.
Form entry, call: pick from TRUE for active, FALSE for inactive

For this compound, state the assay outcome: `CCOC(=O)CO`
FALSE

Lab log entry: O=C1NC(=O)C(c2ccccc2)O1 (stereo not given) — outcome as called in the assay?
FALSE

Hi, do you know how `NC(=S)N/N=C/c1ccc(OC(=O)COc2ccc(Cl)cc2)cn1` came out in this test?
FALSE

Which outcome did this test record for the compound NNc1ncnc2c1ncn2C1OC(CO)C(O)C1O (stereo not given) ?
FALSE

For `CC(=O)N(C(C)=O)c1ccc(C)cc1` , which call appears in the assay record?
FALSE

Outcome logged for C=CCC(OC(C)=O)c1ccc(C(C)C)cc1 (stereo not given) in this assay:
FALSE

For Clc1cccc(Cl)c1C1CSc2ccccc2N=C1c1ccccc1 (stereo not given) , which call appears in the assay record?
FALSE

Please let me know the test result on file for `Oc1ccc2ccccc2c1CN1CCOCC1` .
FALSE

How did this test come out for `Cc1cc2c3ccc(C)[n+](C)c3ccc2n1C` ?
FALSE

Record lookup: outcome of this test for `N#C/C(=C\c1ccc(C#N)cc1)C(=O)c1ccccc1` ?
FALSE

# lookup: test call for `CC(C)C(C)(C)C(=O)C(C)(C)C(C)(C)C`
FALSE

Returns: the outcome recorded for COC1CC(OC(=O)c2ccc([N+](=O)[O-])cc2)C(COC(=O)c2ccc([N+](=O)[O-])cc2)O1 (stereo not given) in this assay.
FALSE

Hey, what did the test say about `Cc1cc2c(C(C)C)c(O)c(O)c(C=Nc3ccccc3[N+](=O)[O-])c2c(O)c1-c1c(C)cc2c(C(C)C)c(O)c(O)c(C=Nc3ccccc3[N+](=O)[O-])c2c1O` ?
FALSE

Look up the recorded call for `CC(=O)O[C@H]1CC[C@]2(C)C3=C(C(=O)C[C@H]2C1(C)C)[C@]1(C)CC[C@H]([C@H](C)CCC(=O)O)[C@@]1(C)CC3=O` in this test.
FALSE

Outcome? `CCOC(=O)c1ccc(NC(=O)Nc2nccs2)cc1`
TRUE

====

System: HOP-92 NSCLC
Assay: NCI-60 one-dose screen, 48 h (100 = growth as untreated, 0 = no growth, -100 = all killed)
Conditions: 10 µM unless noted
This is part of a sample that, as a whole, favours compounds with a hit. Of some 83,000 tested, about 20% had one in any assay.
For each record, write down the corresponding growth.
Provide the reading as a plain figure in %.

Note growth for the compound shown: `O=C(O)c1ccc(OCc2ccccc2)cc1`
93.2

Find the measured growth of `Nc1cc(F)ccc1[N+](=O)[O-]` and report it.
89.5

Specify measured growth for `CC(=O)O[C@H]1CC[C@]2(C)C3=C(C(=O)C[C@H]2C1(C)C)[C@]1(C)CC[C@H]([C@H](C)CCC(=O)O)[C@@]1(C)CC3=O` .
107

Retrieve growth measured for COC(c1ccc2c(c1)OCO2)C(C)Br (centres undefined) and print it.
74.9

Please list growth recorded for the compound `CCOP(=O)(OCC)/C(=C\N1C(=O)CC(=O)NC1=S)C(=O)OC`
107

# return recorded growth for entry `NC(=O)N1CCOCC1`
72.9

Please list growth recorded for the compound `O=C1Nc2ccccc2/C1=C\c1ccccc1O`
46.6

Find the measured growth of NNC(=O)N/N=C1\C(=O)N(c2nccs2)C(=O)C(=O)C1c1nc2ccccc2s1 (centres undefined) and report it.
98.6

Report growth for `ON1CCCC1`
92.4

Given `C1CCc2onc(-c3noc4c3CCCCC4)c2CC1` , respond with its growth.
93.6

Hello, please tell me recorded growth for this one: COc1cc(OC)c(NC(=O)C(Sc2nc(C)cc(C)c2C#N)c2ccccc2)cc1Cl (centres undefined)
80.9

State its growth for this compound: `C[n+]1c(/C=C\C=C\N2CCCCC2)sc2ccccc21`
-42.3

State its growth for this compound: `CCOC(=O)CO`
95.6

Kindly indicate its recorded growth. Item: `c1ccc(-c2ccc3ccccc3c2)cc1`
77

====

Tested on: MDA-MB-435 melanoma
Experiment: NCI-60 one-dose screen, 48 h (100 = growth as untreated, 0 = no growth, -100 = all killed)
Conditions: 10 µM unless noted
Compounds without any hit were thinned out: in the full panel of roughly 83,000, 20% have a hit.
Provide the reported growth of each item.
Number in %, nothing else.

Note down growth recorded for `CCCCCCCCCc1ccc(OC(C)=O)cc1`
109

Could you please provide reported growth for `O=C(c1ccccc1)c1ccc(-c2ccc(O)cc2)cc1` ? Thanks!
9.71

Please give the documented growth of `CCCCN(C=S)CCCC`
105

Identify growth associated with the compound `NC(=O)NCCO`
101

Supply measured growth of `ClCc1cccc2c(CCl)cccc12` in your reply.
84.3

Output measured growth for this item: `C=C(c1ccc(N(C)C)cc1)c1ccc(N(C)C)cc1`
-67.6

Note growth for the compound shown: COC1C(=O)CCC2(CO2)C1(O)C1(C)OC1CCC(C)C (centres undefined)
63.8

Look up and report measured growth for this entry: `O=C1C=CC(=O)C2=C1CCCC2`
102

Quote growth reported for `COc1cc(C(=O)O)c(O)c(C(C)(C)C)c1` please.
104

Given `CC(=O)c1cccc(NS(=O)(=O)c2ccc(C)cc2)c1` , respond with its growth.
-21.4

Query growth for `COC(=O)c1cccc([N+](=O)[O-])c1`
117

Give reported growth value for `CC(=O)CSc1ncnc2nc[nH]c12`
89.7

Query growth for `Cc1[nH]nc(C(N)=O)c1[N+](=O)[O-]`
105

Name the recorded growth of the compound listed here: `CC(=O)O[C@H]1CC[C@]2(C)C3=C(C(=O)C[C@H]2C1(C)C)[C@]1(C)CC[C@H]([C@H](C)CCC(=O)O)[C@@]1(C)CC3=O`
98.7

Please give the documented growth of `O=C1Nc2ccccc2/C1=C\c1ccccc1O`
82.4

Tell me its growth given `CCC(=O)Oc1ccc2ccccc2c1` as the entry.
101

Given CC(=O)OCC1OC(n2cnc3c(=S)nc(N)[nH]c32)C(OC(C)=O)C1OC(C)=O (centres undefined) , respond with its growth.
99.3

Please give measured growth of the following entry: `CN(C)Cc1ccccn1`
103

Check the records and state growth for `O=S(=O)(O)c1ccc(O)c(C2CCCCC2)c1`
102

Fill in growth for record `S=c1nc2[nH]c3ccccc3c2n[nH]1`
107

Specify measured growth for `Cc1ccc(NC(=S)N2CCOCC2)cc1C` .
83.2

Provide measured growth value, entry: `CC1(C)CC(=O)C=C(N)C1`
99.2

Retrieve growth measured for `CC(=O)C[n+]1ccc(C)cc1Sc1ccccc1C` and print it.
101

Item `CC(CO)(CO)C(=O)O` : provide growth
105

Please supply the value of reported growth for the item `CCNc1ccc2ccccc2c1N=Nc1ccc(N=Nc2ccccc2)cc1`
110

Name the recorded growth of the item CCN1CCCC(N2c3ccccc3Sc3ccccc32)C1 (centres undefined) in your answer.
109

Please report the measured growth for `CCN(Cc1ccc(Cl)c(Cl)c1)c1ccc2nc(N)nc(N)c2c1C`
-77.4

Quick one: give measured growth for `Cc1[nH]n(-c2ccccc2)c(=O)c1C=NC(=S)C(N)=S`
109

Return growth (reported value) for this compound: CC(C)(C)[Si](C)(C)OCC1OC(n2cnc3c(N)ncnc32)CC1OS(C)(=O)=O (centres undefined)
112

For `O=C(Nc1ccccc1)c1ccco1` , write its growth.
109

Identify measured growth corresponding to COC(=O)C1(CC(C)=O)NC(=S)NC(=O)C1C#N (centres undefined)
114

Assign growth to the following record: ClCC(Cl)[C@@H]1CC2C=CC1C2 (some centres undefined)
96.9

Return growth (reported value) for this compound: `COc1cccc2c1Cc1ccccc1-2`
103

Let me know recorded growth for `C/C(O)=C(/C=N/C(=S)Nc1ccccc1)C(=O)Nc1ccccc1C` , thanks.
111

Query growth for `O=C1NC(=O)/C(=C\c2ccncc2)N1`
96

Please give the documented growth of `COc1cc(-c2ccc(NC(=O)CC(C)=O)c(OC)c2)ccc1NC(=O)CC(C)=O`
105

Determine from records and report growth for `C=CCc1cc(OC)c(O)c(OC)c1`
108

// Input: `CCCc1cccc(CCC)c1NC(=O)Nc1cc(Cl)cc(Cl)c1` . Output its growth only.
104

Write down growth measured for item `C[n+]1c(/C=C\C=C\N2CCCCC2)sc2ccccc21`
-1.72

Fill in reported growth for this entry: `C=C(OC(C)=O)c1ccccc1`
107

Give the reported value of growth for this record: `O=C(O)c1c[nH]c2ccccc2c1=O`
107

Tell me its growth given `C/C(O)=C(/C=N\C(=S)Nc1ccc(S(=O)(=O)Nc2nccs2)cc1)C(=O)Nc1ccccc1C` as the entry.
109

For the compound `COC(=O)C1=C(C)C(=O)CC1` , give its reported growth.
121

Please look at this compound and report its growth: `CC(C)C(=O)OCCOc1ccc(C(C)(C)C)cc1`
87.5

Give the reported value of growth for this record: `COc1ccc(Br)c2c1C(=O)CC2`
116

Give me measured growth, please, for this compound: `O=[n+]1ccn([O-])c2ccccc21`
101

Quote growth reported for `CCOc1ccccc1NC(=O)CCl` please.
83.9

Please report the measured growth for `Cc1ccc2nc(N)nnc2c1`
106

Annotate the compound `Cc1onc(-c2c(F)cccc2Cl)c1-c1ncc(-c2ccc(Br)cc2)o1` with its measured growth.
40.8
